Reference source for all entries: the supplement of paper PMC12024424

system: Staphylococcus aureus Sa2 (MRSA, cystic fibrosis isolate); assay: growth reduction vs untreated control (OD550); higher = stronger antibacterial activity; conditions: 0.1 mM; 24 h
Where a name gives a salt, the structure may show the parent alone.
For each of the compounds below, state its growth reduction.
Provide the reading as a plain figure in %.

Ask | Tell me the measured growth reduction of `CN(C)C(=O)/C=C/CNCCOc1ccc(/C(=C(/CC(F)(F)F)c2ccccc2)c2ccc3[nH]nc(F)c3c2)cn1` , please.
Reply | 100

Ask | Give its growth reduction value. Item: CC1(C)CCC2=C(O1)c1ccccc1C(=O)C2=O [β-Lapachone]
Reply | 100

Ask | What value of measured growth reduction is listed for O=C(CCCCCCNC(=O)c1cnc(N(c2ccccc2)c2ccccc2)nc1)NO [Ricolinostat] ?
Reply | 100

Ask | Using the record for Clc1ccc(Nc2nnc(Cc3ccncc3)c3ccccc23)cc1 [Vatalanib (dihydrochloride)] , report its growth reduction.
Reply | 100

Ask | Name the recorded growth reduction for C=CC(=O)Nc1cc(Nc2nccc(-c3cn(C)c4ccccc34)n2)c(OC)cc1N(C)CCN(C)C [Osimertinib (dimesylate)] .
Reply | 100

Ask | So what does the record say about growth reduction for `O=C(O)Cc1ccc(Cc2cc(-c3cccc(Cl)c3)nc(C(F)(F)F)c2)cc1` ?
Reply | 100

Ask | What does the record list as growth reduction for `Cc1noc(-c2ccc(-c3ccc(C4(C(=O)O)CC4)cc3)cc2)c1NC(=O)O[C@H](C)c1ccccc1` ?
Reply | 100

Ask | What growth reduction value was documented for this compound, COCC[n+]1c2c(n(Cc3cnccn3)c1C)C(=O)c1ccccc1C2=O [Sepantronium (bromide)] ?
Reply | 100

Ask | So what's the measured growth reduction for this one? `CC(C)(C(=O)NCC(F)(F)C(F)(F)F)C(=O)N[C@@H]1C(=O)Nc2ccccc2-c2ccccc21`
Reply | 100

Ask | What measured growth reduction goes with COc1ccc2c(c1OCc1ccccc1)C[C@@H](C(=O)O)N(C(=O)C(c1ccccc1)c1ccccc1)C2 [Olodanrigan] ?
Reply | 95.1

Ask | State the recorded growth reduction for this entry: CCCCCCCC/C=C/CCCCCCCC(=O)OC[C@H]1O[C@@H](n2ccc(N)nc2=O)C(F)(F)[C@@H]1O [Gemcitabine (elaidate)]
Reply | 100

Ask | Find the recorded growth reduction belonging to O=C(c1ccc(OCCN2CCCCC2)cc1)c1c(-c2ccc(O)cc2)sc2cc(O)ccc12 [Raloxifene (hydrochloride)] and report it.
Reply | 99.8

Ask | Query: growth reduction; subject: C1=N/C2=N/c3ccc(OCCN4CCCC4)c(c3)COC/C=C/COCc3cccc(c3)C(=C1)N2 [Pacritinib]
Reply | 100

Ask | I'd like to know its growth reduction. The compound in question is CSc1ccc(C(=O)/C=C/c2cc(C)c(OC(C)(C)C(=O)O)c(C)c2)cc1 [Elafibranor]
Reply | 91.6

Ask | Look up growth reduction: Cc1cc2c(F)c(Oc3ncnn4cc(OC[C@@H](C)OC(=O)[C@H](C)N)c(C)c34)ccc2[nH]1 [Brivanib (alaninate)]
Reply | 100

Ask | Look up growth reduction for this compound: Oc1c(Br)cc(Br)c2cccnc12 [Broxyquinoline]
Reply | 100

Ask | Item under review: Cc1ccc([C@@H]2O[C@H](CO)[C@@H](O)[C@H](O)[C@H]2O)cc1Cc1ccc(-c2ccc(F)cc2)s1 [Canagliflozin] . Reported growth reduction?
Reply | 100

Ask | Give the measured growth reduction of O=C(NC(=Nc1cc(C(F)(F)F)[nH]n1)Nc1cc(F)cc(Cl)c1)c1cccc(Cl)c1 [Parimifasor] .
Reply | 100

Ask | # growth reduction lookup, item CO[C@H](C(=O)[C@@H](O)[C@@H](C)O)[C@@H]1Cc2cc3cc(O[C@H]4C[C@@H](O[C@H]5C[C@@H](O)[C@H](O)[C@@H](C)O5)[C@H](O)[C@@H](C)O4)c(C)c(O)c3c(O)c2C(=O)[C@H]1O[C@H]1C[C@@H](O[C@H]2C[C@@H](O[C@H]3C[C@](C)(O)[C@H](O)[C@@H](C)O3)[C@@H](O)[C@@H](C)O2)[C@H](O)[C@@H](C)O1 [Plicamycin]
Reply | 99.6

Ask | Bench note: what growth reduction did CC/C(=C(\c1ccccc1)c1ccc(OCCN(C)C)cc1)c1ccccc1 [Tamoxifen] show?
Reply | 100

Ask | For the compound shown here, `O=C(Nc1ccc(F)cc1)c1cnc(SCc2cc(OC(F)(F)F)ccc2B(O)O)nc1` , give the reported growth reduction.
Reply | 100

Ask | Using the record for CCOc1nc2cccc(C(=O)OC(C)OC(=O)OC3CCCCC3)c2n1Cc1ccc(-c2ccccc2-c2nn[nH]n2)cc1 (stereo not given) [Candesartan Cilexetil] , report its growth reduction.
Reply | 100

Ask | For the compound shown here, NC(=O)C1=C(O)[C@@]2(O)C(=O)C3=C(O)c4c(O)cccc4C[C@H]3C[C@H]2CC1=O [Incyclinide] , give the reported growth reduction.
Reply | 100

Ask | Which growth reduction reading was recorded for the compound C[C@H]1O[C@@H](n2cc(F)c(=O)[nH]c2=O)[C@H](O)[C@@H]1O [Doxifluridine] ?
Reply | 97.9

Ask | GET /values?readout=growth reduction&item= CN(C(=O)CN(CCO)CC(=O)N(C)C(C)(C)Cc1ccccc1)C(C)(C)Cc1ccccc1 [Oxethazaine]
Reply | 100

Ask | Looking for the measured growth reduction of c1cn2cc(-c3ccc4cn[nH]c4c3)nc(Nc3ccc(N4CCOCC4)cc3)c2n1 [Entospletinib] , can you help?
Reply | 100

Ask | Which growth reduction is listed for `Cc1cc(-c2nc(CN3CCNCC3)no2)cc2c1C(=O)N(Cc1ccc(OC(F)(F)F)cc1)C2` ?
Reply | 100

Ask | State the recorded growth reduction for this entry: CCN(CC)CC#CCOC(=O)C(O)(c1ccccc1)C1CCCCC1 (stereo not given) [Oxybutynin (chloride)]
Reply | 94.3

Ask | I'd like to know its growth reduction. The compound in question is NC(=O)N1CCC(CC(=O)N2CCC([C@H]3c4ncc(Br)cc4CCc4cc(Cl)cc(Br)c43)CC2)CC1 [Lonafarnib]
Reply | 94.3

Ask | Bench note: what growth reduction did O=C(Nc1ccc([N+](=O)[O-])cc1Cl)c1cc(Cl)ccc1O [Niclosamide] show?
Reply | 99.8
